Source: the nanobody polyreactivity screen of Harvey et al. (2022)

# experiment: yeast display, Sf9 membrane polyspecificity reagent, FACS + sequencing; frameworks hold sequencing errors
endpoint: polyreactivity (PSR sort gate)

QVQLVESGGGLVQAGGSLRLSCAASVGTFRRYAKGWYREAPGKERELVAAISWTGGSTYYADSVKGRFTISRDNAKNNVYLQMNSLKPEDTAVYYCAAVGSSSSKGGYWGQGTQVTVSS : high polyreactivity
QVQLVESGGRLVQPGGSLRLSCAASGRTFVLNAIGWYRQAPGKEREFVAAISWGGVRTDYADSVKGRFTISRDNAKNTVYLQMNSLKPEDTAVYYCATSGSRYRRYDYWGQGTQVTVSS : high polyreactivity
QVQLVESGGGLVQAGGSLRLSCAASGSTFRSYARGWYRQAPGKERELVAVISKRGGSTYYADSVKGRFTISRDNAKNTVYLQMNSLKPEDTAVYYCAADVYRYYAPNDYYWGQGTQVTVSS : high polyreactivity
QVQLVESGGRLVQAGVILRLSCAASGSTFAPYAMGWYRQSPGKESELVATISASGGTTYYADSVKGRFTISRDNAKNTVYLQMNSLKPEDTAVYYCNADSNWYDQWNYYGLNDYWGQGTQVTVSS : low polyreactivity
QVQLVESGGGLVQAGGSRRLSCAASGRTFYLYAMGWYIQARGQERELVAANTTSGGSTYYADSVKGRFTISRDKAKNTVYLQMHSLKPEDTAVYYCNKDLSTTKFDDWGQGTQVTVSS : low polyreactivity

Asked: What polyreactivity (PSR sort gate) value was documented for this sequence, QVQLVESGGGLVQAGGSLRLSCAASGSTFWFYAMGWYRQAPGKERELVAVISNSGSTYYADSVKGRFTISRDNAKNTVYLQMNSLKPEDTAVYYCAAYAYQYRFSGYGYWGQGTQVTVSS ?
Given back: low polyreactivity

Asked: What polyreactivity (PSR sort gate) value was documented for this sequence, QVQLVESGGGLVQAGGSLRLSCAASGSIIDYNAMGWYRQAPGKERELVAAIDWSGSSTYYADSVKGRFTISRDNAKNTVYLQMNSLKPEDTAVYYCNALAYYGMDYWGQGTQVTVSS ?
Given back: low polyreactivity

Asked: What polyreactivity (PSR sort gate) value was documented for this sequence, QVQLVESGGGLVQAGGSLRLSCAASGITFDSYAMGWYRQAPGKEREFVAAISRSGGSTYYADSVKGRFTISRDNAKNTVYLQMNSLKPEDTAVYYCAVSLGRGSSWKLGYWGQGTQVTVSS ?
Given back: high polyreactivity

----------
# experiment: yeast display, Sf9 membrane polyspecificity reagent, FACS + sequencing; frameworks hold sequencing errors
endpoint: polyreactivity (PSR sort gate)

Please review the following examples before continuing.
QVQLVESGGGLVQAGGSLRLSCAASGSTFDSNAMGWYRQAPGKERELVAPISGSASRTYYADSVKGRFTISRDNAKNTVYLQMNSLKPEDTAVYYCAAVRYHMYYWGQGTQVTVSS : high polyreactivity
QVQLVESGGGLVQAGGSLRLSCAASGRTFGVYAMGWYRQAPGKERELVAGIRWRGGSTYYADSVKGRFTISRDNAKNTVYLQMNSLKPEDTAVYYCAAKVYYLYDSIWAWVIIRYDYWGQGTQVTVSS : low polyreactivity
QVQLVESGGGLVQAGGSLRLSCAASGFTFKSYTMGSYRQAPGKERELVAAISRRDGSTYYADSVKGRFTISRDNAKNTVYLQMNSLKPEDTAVYYCAKVWYGDRNIDRYDYWGQGTQVTVSS : high polyreactivity
QVQLVESGGGLVQAGGSLRLSCAASGFIFRWYAMGWYRQAPGKERELVASINWSGSRTNYADSVKGRFTISRDNAKYTVYLQMNSLKPEDTAVYYCNAYGGLQYDYWGQGTQVSVSS : high polyreactivity
QVQLVESGGGLVQAGGSLRLSCAASGLTFGRYAMGWYIQATGKERQLVASISQRGGSTYYADSVKGRFTISRDNAKNTVYLQMNSLKPEDTAVYYCNARVRDIYRYSMDSWGQGTQVTVSS : low polyreactivity
QVQLVESGGGLVQAGGSLRLSCAASGSILSAYAMGWYRQAPGKERELVAAISWSGGSTYYADSVKGRFTISRDNAKNTVYLQMNSLKPEDTAVYYCATVNKKWRRYDYWGQGTQVTVSS : high polyreactivity
QDQLVKSGGGLVQAGGSLRLSCAASGSTFTRNAMGWYRQAHGKERELVAAITLRGGRTYYADSVNGRFTISRDNAKNTVYLHMNSLKPEDTAVYYCAAKPYSAYSYYEQRGRKYDYWGQGTQVTVSS : low polyreactivity
QVQLVESGGGLVQAGGSLRLSCAASGRIFGVNAMGWYRQAPGKERELVAAISVSGDSTYYADSVKGRFTISRDNAKNTVYLQMNSLKPEDTAVYYCNAGFTFVPADLTDEYYWGQGTQVTVSS : low polyreactivity
QEQLQESGSGLVQAGGSLRLSCAASGNIFQDWFMGWYRQAPGKERELVAAISPGANTNYADSVKGRFTISRDNAKNSVYLQMNSLKPEDTAVYYCAAESLFDDYYGYWGQGTQVTVSS : low polyreactivity
QVQLVESGGGLVQAGGSLRVICAASGIIFPIYAMGWYRQAPGKEWELVAGISTGGGGTYYADSVKGRFTISRDNAKNTVYLQKNSLKPEDTAVYYCNVDAAGSNSHARHDSWGQGTQVTVSS : low polyreactivity

Asked: What polyreactivity (PSR sort gate) value was documented for this sequence, QVQLVESGGGLVQAGGSLRLSCAASGSTFVSNTMGWYRQAPGKERELVAAITWGGGGTYYADSVKGRFTISRDNAKNTVYLQMNSLKPEDTAVYYCAAKVQGGYYDYDYWGQGTQVTVSS ?
Given back: low polyreactivity

Asked: What polyreactivity (PSR sort gate) value was documented for this sequence, QVQLVESVGGLVQAGGSLRLSCAASGRTFGRYAMGWDRQAPGKERELVAAISWSGATTYYADSVKGRFTISRDNAKNTVYLQMNSLKPEDTAVYYCAARFRRGITYEYWGQGTQVTVSS ?
Given back: high polyreactivity

Asked: What polyreactivity (PSR sort gate) value was documented for this sequence, QVQLVETGGGLVQAGGSLRLSCAASGRTFNVNVKGRYRQAPGKERELVAAINRRGNTYYADSVKGRFTISRDNAKNTVYLQMNSLKPEDTAVYYCAADYRRYGSYDYWGQGTQVTVSS ?
Given back: low polyreactivity

Asked: What polyreactivity (PSR sort gate) value was documented for this sequence, QVQLVESGGGLVQAGGSLRLSCAASGSIFTYNAMGWYRQAPGKERELVAVISWSGGSTYYADSVKGRFTISRDNAKNTVYLQMNSLKPEDTAVYYCNAYYYRPYGNKYGYWGQGTQVTVSS ?
Given back: high polyreactivity

Asked: What polyreactivity (PSR sort gate) value was documented for this sequence, QVQLVESGGGLVQAGGSLRLSCAASGRIFDYYTMGWYRQAPGKERELVAAITWIGGSTYYADSVKGRFTISRDNAKNTVYLQMKSLKPEETAVYYCYAEGTALPYRADTVGGYYYWGQGTQVTVSS ?
Given back: low polyreactivity

Asked: What polyreactivity (PSR sort gate) value was documented for this sequence, QVQLVESGGGLVQAGGSLRLSCAASGSTFSYNAMGWYRQAPGKERELVATITTGGRTSYADSVKGRFTISRDNAKNTVYLQMNSLKPEDTAVYYCAAVGRFSSRPRVVYYGYDYWGQGTQVTVSS ?
Given back: low polyreactivity

Asked: What polyreactivity (PSR sort gate) value was documented for this sequence, QVQLVESGGGLVQAGGSLRLSCAASGSIFNYYAMGWYRQAPGKERELVAGITTSGGSTYYADSVKGRFTISRDNAKNTVYFQMHSLKPEDTAVYYGAAYDYISSTYFLDDYWGQGTQVTVSS ?
Given back: low polyreactivity

Asked: What polyreactivity (PSR sort gate) value was documented for this sequence, QVQLVESGGVLVQAGGSLRLSCAASGSILHDYAMGWYRQAPGKERELVASINWSGGRTYYADSVKGRFTISRDNAKNTVYLQRNRLTPEDTAVYYCSADPSWLHVSHAPTFGLDYWGQGSQVTVSS ?
Given back: high polyreactivity

Asked: What polyreactivity (PSR sort gate) value was documented for this sequence, QVQLVESGGGLVQAGRSLRLSCAASGLTFLAYDMGWYRQAPGKVRQLVAAITGGGSTHYADSVKGRFTISRDNAKNTVYLQMTSLKPDDTAVSYCNADVYVYSVTSHYPSYRLDYWGHGTQVTVSS ?
Given back: high polyreactivity

Asked: What polyreactivity (PSR sort gate) value was documented for this sequence, QVQLVESGGGLVQAGGSLRLSCAPSGSTFRRNTMGWYRQAPGKARELVAGISSSGGSTYYADSVKGRFTISRDNAKNTVYLQMNSLKPEDTAVYYCAARFYVSYVGYNYWGQGSQVTVSS ?
Given back: high polyreactivity

Asked: What polyreactivity (PSR sort gate) value was documented for this sequence, QVQLVESGGGLVQAGGSLRLSCAASGSTFLNNAMGWYRQAPGKERELVASIRYSSARTYYADTVKGRFTISRDNAKNTVYLQMNSLKPEDTAVYYCAADRWVGYRVYKYDYWGQGTQVTVSS ?
Given back: high polyreactivity
